B1: library; numbered along this chain (parent)
chain: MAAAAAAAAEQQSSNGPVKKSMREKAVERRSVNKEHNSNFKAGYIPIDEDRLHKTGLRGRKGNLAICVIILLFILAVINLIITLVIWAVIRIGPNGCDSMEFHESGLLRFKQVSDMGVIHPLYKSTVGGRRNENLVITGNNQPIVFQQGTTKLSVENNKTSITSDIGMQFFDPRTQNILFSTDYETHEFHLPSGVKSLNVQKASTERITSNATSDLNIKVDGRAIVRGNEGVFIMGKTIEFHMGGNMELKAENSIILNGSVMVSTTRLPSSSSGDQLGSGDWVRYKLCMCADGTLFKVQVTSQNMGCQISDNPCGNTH

# Variants of: B1
# Protocol Description: SGCB cell-surface expression functional score (HA stain, bin4 vs bin1, normalised to synonymous) (log10 ratio); higher = more cell-surface SGCB (functional)
Observed Property: SGCB cell-surface expression functional score (log10)

- Variant Id: "K250T"
  Result: 0.83
- Variant Id: "E188T"
  Result: -0.38
- Variant Id: "Q142A"
  Result: -0.06
- Variant Id: "I178C"
  Result: -0.6
- Variant Id: "S193L"
  Result: 0.22
- Variant Id: "W282P"
  Result: 0.15
- Variant Id: "C290M"
  Result: -0.16
- Variant Id: "I137Y"
  Result: -1.36
- Variant Id: "R207E"
  Result: -2.46
- Variant Id: "V200G"
  Result: -1.65
- Variant Id: "Q11A"
  Result: -0.04
